# tested_on: recombinant human βARK1 (Homo sapiens, UniProt P25098)
# Sequence (P25098 whole entry): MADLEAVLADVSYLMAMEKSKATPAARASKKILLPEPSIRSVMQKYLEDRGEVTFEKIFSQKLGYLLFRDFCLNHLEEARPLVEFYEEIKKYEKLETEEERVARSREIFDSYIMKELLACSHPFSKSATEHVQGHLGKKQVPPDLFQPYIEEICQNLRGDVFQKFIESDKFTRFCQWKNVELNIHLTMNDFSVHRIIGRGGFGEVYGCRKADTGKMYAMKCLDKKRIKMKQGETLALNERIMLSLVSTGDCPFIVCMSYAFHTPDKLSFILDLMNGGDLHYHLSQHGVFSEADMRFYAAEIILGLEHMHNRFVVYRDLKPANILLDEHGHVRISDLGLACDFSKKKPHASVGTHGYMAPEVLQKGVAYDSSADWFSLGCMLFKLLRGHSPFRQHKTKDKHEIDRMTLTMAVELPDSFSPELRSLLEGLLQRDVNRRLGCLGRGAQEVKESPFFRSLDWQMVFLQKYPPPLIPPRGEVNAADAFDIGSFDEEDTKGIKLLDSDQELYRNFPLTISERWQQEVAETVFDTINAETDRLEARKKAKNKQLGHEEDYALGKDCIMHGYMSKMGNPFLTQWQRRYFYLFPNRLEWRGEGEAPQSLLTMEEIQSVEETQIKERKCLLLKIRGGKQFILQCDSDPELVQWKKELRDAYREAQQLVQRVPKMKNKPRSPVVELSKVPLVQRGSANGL
# assay_method_text: Inhibitory activity against βARK1 (33P phosphorylation of synthetic peptide)
# condition_parameters: recombinant human βARK1, 60 minutes at room temperature
# Excerpt: Human βARK1 was amplified by PCR based on the base sequence of human βARK1 mRNA registered in GenBank (Accession No. M80776) using a human leukocyte cDNA library (Gibco BRL Cat. No. 10421-022) as a template. The amplified cDNA fragment was inserted into a pBacPAK8 vector (Clontech) to construct a plasmid. Recombinant human βARK1 was expressed using the BacPAK Baculovirus Expression System (Clontech, Cat. No. K1601-1). […]
Reported pIC50 values are given for each entry in this list.
The meaning of pIC50 here: minus log10 of the concentration in molar units.

Solved cases below.
> print(dat)
                                   molecule  measured
1  CC(=O)Nc1cc(NC(C)(C)C(=O)Nc2nc3c(C(F)(F)F)cc4[nH]ncc4c3s2)ccc1Cl [compound 53]      8.70
2  CCNC(=O)c1cc(NC(C)(C)C(=O)Nc2nc3c(C(F)(F)F)cc4[nH]ncc4c3s2)ccc1F [compound 58]      8.19
3  CC(=O)Nc1cc(NC(C)(C)C(=O)Nc2nc3ccc4[nH]ncc4c3s2)ccc1Cl [compound 128]      8.55

Note: attention shifts to another entry.
Measured pIC50 (recombinant human βARK1 (Homo sapiens, UniProt P25098)), entry CC(C)(Nc1ccc(Cl)c(C(=O)NCC(N)=O)c1)C(=O)Nc1nc2c(C(F)(F)F)cc3[nH]ncc3c2s1 [compound 85] : 8.00

---

Reported pIC50 values are given for each entry in this list.
# tested_on: Aurora A (Homo sapiens, UniProt O14965)
# Sequence (O14965 1-403): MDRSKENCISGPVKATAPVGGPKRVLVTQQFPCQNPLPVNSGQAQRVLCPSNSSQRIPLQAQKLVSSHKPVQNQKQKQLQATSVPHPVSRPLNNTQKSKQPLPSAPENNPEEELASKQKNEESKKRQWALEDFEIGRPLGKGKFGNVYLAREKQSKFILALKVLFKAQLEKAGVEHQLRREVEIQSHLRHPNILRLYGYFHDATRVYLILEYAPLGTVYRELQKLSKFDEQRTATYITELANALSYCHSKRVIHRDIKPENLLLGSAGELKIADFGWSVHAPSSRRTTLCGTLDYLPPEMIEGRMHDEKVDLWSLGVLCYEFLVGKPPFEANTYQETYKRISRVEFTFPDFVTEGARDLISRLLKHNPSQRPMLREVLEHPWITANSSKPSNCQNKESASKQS
# assay_method_text: In vitro kinase assay, Aurora A
# condition_parameters: recombinant protein (Upstate)
The meaning of pIC50 here: minus log10 of the concentration in molar units.

Solved cases below.
> print(dat)
                                smiles.repr  parameter  measured
1  CC(=O)Nc1cc(NC(C)(C)C(=O)Nc2nc3ccc4[nH]ncc4c3s2)ccc1Cl      pIC50      7.41
2  CC(C)(Nc1cccc(S(N)(=O)=O)c1)C(=O)Nc1nc2c(C(F)(F)F)cc3[nH]ncc3c2s1      pIC50      7.85
3  CCC(=O)Nc1cc(NC2(C(=O)Nc3nc4ccc5[nH]ncc5c4s3)CC2)ccc1F      pIC50      6.51
4  CNC(=O)c1cc(NC2(C(=O)Nc3nc4ccc5[nH]ncc5c4s3)CC2)ccc1Cl      pIC50      7.24
5  CC(C)(Nc1ccc(Cl)c(C(=O)NCC(N)=O)c1)C(=O)Nc1nc2c(C(F)(F)F)cc3[nH]ncc3c2s1      pIC50      7.15
6  CC(C)(Nc1cccc(O)c1)C(=O)Nc1nc2ccc3[nH]ncc3c2s1      pIC50      7.54

The reported pIC50 of the compound CC(C)(Nc1cccc(C(=O)NCC(=O)OCCO)c1)C(=O)Nc1nc2c(C(F)(F)F)cc3[nH]ncc3c2s1 was 7.18

The reported pIC50 of the compound COC(=O)Nc1cc(NC(C)(C)C(=O)Nc2nc3ccc4[nH]ncc4c3s2)ccc1Cl was 6.37
